- TESTED_TARGET: hD2L (Homo sapiens, UniProt P14416)
- Construct: purchased BioSignal Packard Inc., Montreal, Canada
- Sequence (P14416 whole entry): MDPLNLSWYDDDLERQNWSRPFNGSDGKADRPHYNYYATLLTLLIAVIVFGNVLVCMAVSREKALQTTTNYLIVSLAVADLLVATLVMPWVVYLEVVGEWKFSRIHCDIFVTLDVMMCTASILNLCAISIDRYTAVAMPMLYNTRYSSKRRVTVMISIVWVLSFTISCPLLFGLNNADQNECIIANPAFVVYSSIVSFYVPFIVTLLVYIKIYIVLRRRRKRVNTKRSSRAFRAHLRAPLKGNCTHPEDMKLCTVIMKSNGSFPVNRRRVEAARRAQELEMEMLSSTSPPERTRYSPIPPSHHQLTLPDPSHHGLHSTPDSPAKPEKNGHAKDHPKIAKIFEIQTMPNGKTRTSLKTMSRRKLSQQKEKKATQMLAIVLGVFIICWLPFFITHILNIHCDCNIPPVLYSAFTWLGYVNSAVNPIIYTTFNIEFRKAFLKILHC
- TEST_METHOD_NOTES: Radioligand binding, dopamine D2 ([3H]spiperone)
- REPORTED_CONDITIONS: Table 4; [3H]spiperone 1 nM; read-out: Binding affinity, IC50 (nM) D2
- Protocol: 2-2: Binding assays of Dopamine Receptor Family The radioligands used were [^3H] spiperone (for hD2L and hD3 receptors, 1 nM) and [^3H] YM-09151-2 (for hD4.2 receptor, 0.06 nM). […] Competition binding studies were carried out with 7-8 concentrations of the test compound run in duplicate tubes, and isotherms from three assays were calculated by computerized nonlinear regression analysis (GraphPad Prism Program, San Diego, […]) to yield median inhibitory concentration (IC50) values.
MEASURED_ATTRIBUTE: IC50

// IC50 lookup, key: C[C@]1(c2ccc(O)cc2)C(=O)c2c(N3CCNCC3)cc(Cl)cc2N(Cc2ccccc2)C1=O > 10000 nM

// IC50 lookup, key: COc1ccc(C2(C)C(=O)c3c(N4CCNCC4)cc(Cl)cc3N(Cc3ccc4ccccc4n3)C2=O)cc1 (centres unmarked) > 1000 nM

// IC50 lookup, key: COc1ccc([C@@]2(C)C(=O)c3c(N4CCNCC4)cc(Cl)cc3N(Cc3ccccc3)C2=O)cc1 > 10000 nM

// IC50 lookup, key: COc1ccc(C2(C)C(=O)c3c(N4CCNCC4)cc(Cl)cc3N(Cc3cccc(N)c3)C2=O)cc1 (centres unmarked) 7650 nM

// IC50 lookup, key: CCNc1ccc([C@]2(C)C(=O)c3c(N4CCN(C)CC4)cc(Cl)cc3N(Cc3ccccc3)C2=O)cc1 (stereo in doubt) > 1000 nM

// IC50 lookup, key: COc1ccc([C@]2(C)C(=O)c3c(N4CCNCC4)cc(Cl)cc3N(Cc3ccccc3)C2=O)cc1 > 10000 nM

// IC50 lookup, key: COc1ccc(C2(C)C(=O)c3c(N4CCNCC4)cc(Cl)cc3N(Cc3ccc4ccccc4c3)C2=O)cc1 (centres unmarked) > 1000 nM

// IC50 lookup, key: COc1ccc(C2(C)C(=O)c3c(N4CCN(C)CC4)cc(Cl)cc3N(Cc3ccccc3)C2=O)cc1 (centres unmarked) > 10000 nM

// IC50 lookup, key: COc1ccc(C2(C)C(=O)c3c(N4CCNCC4)cc(Cl)cc3N(Cc3ccccc3)C2=O)cc1 (racemic) > 10000 nM

// IC50 lookup, key: CC1(c2ccc(O)cc2)C(=O)c2c(N3CCNCC3)cc(Cl)cc2N(CC2CCCCC2)C1=O (centres unmarked) > 10000 nM

// IC50 lookup, key: CCNc1ccc(C2(C)C(=O)c3c(N4CCNCC4)cc(Cl)cc3N(Cc3ccccc3)C2=O)cc1 (centres unmarked) > 1000 nM

// IC50 lookup, key: CC1(c2ccc(O)cc2)C(=O)c2c(N3CCNCC3)cc(Cl)cc2N(Cc2ccccc2O)C1=O (centres unmarked) 7650 nM

// IC50 lookup, key: CC1(c2ccc(O)cc2)C(=O)c2c(N3CCNCC3)cc(Cl)cc2N(Cc2cccnc2)C1=O (centres unmarked) 7690 nM

// IC50 lookup, key: CCN1C(=O)C(C)(c2ccc(OC)cc2)C(=O)c2c(N3CCNCC3)cc(Cl)cc21 (centres unmarked) 8570 nM

// IC50 lookup, key: COc1ccc(C2(C)C(=O)c3c(N4CCNCC4)cc(Cl)cc3N(Cc3ccccc3OC)C2=O)cc1 (centres unmarked) 9170 nM

// IC50 lookup, key: CC1(c2ccc(O)cc2)C(=O)c2c(N3CCNCC3)cc(Cl)cc2N(Cc2ccc3ccccc3n2)C1=O (centres unmarked) 7680 nM

// IC50 lookup, key: CC1(c2ccc(O)cc2)C(=O)c2c(N3CCNCC3)cc(Cl)cc2N(Cc2cccc(Br)c2)C1=O (centres unmarked) 8050 nM

// IC50 lookup, key: CN1CCN(c2cc(Cl)cc3c2C(=O)[C@@](C)(c2ccc(N)cc2)C(=O)N3Cc2ccccc2)CC1 (stereo in doubt) 6550 nM

// IC50 lookup, key: C[C@@]1(c2ccc(O)cc2)C(=O)c2c(N3CCNCC3)cc(Cl)cc2N(Cc2ccccc2)C1=O > 10000 nM

// IC50 lookup, key: COc1ccc(C2(C)C(=O)c3c(N4CCN(C)CC4)cc(Cl)cc3N(Cc3cccc(N)c3)C2=O)cc1 (centres unmarked) > 10000 nM
